// provenance: patent US12110286B2

SUBJECT OF TEST: Trx-6×His-BCL6 (human BCL6 BTB domain covering amino-acid sequence 5-129) (Homo sapiens (Human), UniProt P41182)
METHOD NOTES: HTRF in vitro assay (BCL6 / BCOR-AF633 peptide)
Type: binding
MEASUREMENT PARAMETERS: further generated data; 1 nM Trx-6×His-BCL6, 300 nM BCOR-AF633 peptide, 0.5 nM anti-6×His-Terbium cryptate
Procedure: The % inhibition at each concentration was calculated by normalising FRET ratio to the appropriate high (DMSO with all reagents) and low (DMSO without BCL6) controls.

MOLECULE: Cc1nn(-c2ncc(Cl)c(Nc3ccc4c(c3)n(CCC(C)(C)O)c(=O)n4C)n2)c(C)c1Cl [Example 15n]
HTRF pIC50: 6.35

MOLECULE: Cn1c(=O)n(CCC(C)(C)O)c2cc(Nc3ncnc(Cl)c3C#N)c(F)cc21 [Example 22d]
HTRF pIC50: 5.45

MOLECULE: C[C@@H](O)CCn1c(=O)n(C)c2ccc(Nc3cc(Cl)ncc3Cl)cc21
HTRF pIC50: 5.47

MOLECULE: CCOC(=O)c1c(C)nn(-c2ncc(Cl)c(Nc3ccc4c(c3)n(CCC(C)(C)O)c(=O)n4C)n2)c1C [Example 15c]
HTRF pIC50: 6.22

MOLECULE: CC(C)(O)CCn1c(=O)n(CCC(C)(C)O)c2c(Cl)cc(Nc3nc(N4CC(C)(C)OC(C)(C)C4)ncc3Cl)cc21 [Example 35u]
HTRF pIC50: 5.74

MOLECULE: CN(C)C(=O)C1CCN(c2ncc(Cl)c(Nc3ccc4c(c3)n(CCC(C)(C)O)c(=O)n4C)n2)CC1 [Example 20c]
HTRF pIC50: 6.60

MOLECULE: CCOC(=O)c1cnn(-c2ncc(Cl)c(Nc3ccc4c(c3)n(CCC(C)(C)O)c(=O)n4C)n2)c1 [Example 15b]
HTRF pIC50: 5.96

###

In this section we review reported HTRF pIC50 values for a set of molecules.
SUBJECT OF TEST: Trx-6×His-BCL6 (human BCL6 BTB domain covering amino-acid sequence 5-129) (Homo sapiens (Human))
METHOD NOTES: HTRF in vitro assay (BCL6 / BCOR-AF633 peptide)
Format: binding
MEASUREMENT PARAMETERS: initially generated data; 10 nM Trx-6×His-BCL6, 300 nM BCOR-AF633 peptide, 1 nM anti-6×His-Terbium cryptate

MOLECULE: CNC(=O)c1cc(Nc2ccc3c(c2)n(CC[C@H](C)n2cccn2)c(=O)n3C)c(C#N)c(Cl)n1 [Example 1d]
HTRF pIC50: 6.04
--
MOLECULE: C[C@@H](O)CCn1c(=O)n(C)c2ccc(Nc3cc(Cl)ncc3Cl)cc21 [Example 1m]
HTRF pIC50: 5.62
--
MOLECULE: COC(=O)c1cc(Nc2ccc3c(c2)n(CCC(C)C(=O)OC)c(=O)n3C)c(C#N)c(Cl)n1 (centres unmarked) [Example 2a]
HTRF pIC50: 6.41
--
MOLECULE: CC(=O)NC(C)CCn1c(=O)n(C)c2ccc(Nc3ccnc(Cl)c3C#N)cc21 (centres unmarked) [Example 13]
HTRF pIC50: 5.75
--
MOLECULE: COC(=O)C(C)CCn1c(=O)n(C)c2ccc(Nc3nc(C)ncc3Cl)cc21 (centres unmarked) [Example 3c]
HTRF pIC50: 5.37
--
MOLECULE: COC(=O)C(C)CCn1c(=O)n(C)c2ccc(Nc3cc(C(=O)N(C)C)nc(Cl)c3C#N)cc21 (centres unmarked) [Example 7c]
HTRF pIC50: 5.57
--
MOLECULE: CN(C)CCNC(=O)c1cc(Nc2ccc3c(c2)n(C)c(=O)n3C)c(C#N)c(Cl)n1 [Example 7d]
HTRF pIC50: 5.50
--
MOLECULE: COC(=O)C(C)CCn1c(=O)n(C)c2ccc(Nc3cc(C(=O)OC(C)C)nc(Cl)c3C#N)cc21 (centres unmarked) [Example 2c]
HTRF pIC50: 6.10

###

SUBJECT OF TEST: Trx-6×His-BCL6 (human BCL6 BTB domain covering amino-acid sequence 5-129) (Homo sapiens (Human), UniProt P41182)
METHOD NOTES: HTRF in vitro assay (BCL6 / BCOR-AF633 peptide)
Assay type: binding
MEASUREMENT PARAMETERS: further generated data; 1 nM Trx-6×His-BCL6, 300 nM BCOR-AF633 peptide, 0.5 nM anti-6×His-Terbium cryptate
MEASURE: HTRF pIC50

COMPOUND: Cn1c(=O)n(CCC(C)(C)O)c2cc(Nc3nc(N4CCCC(c5ccccc5)C4)ncc3Cl)ccc21 (stereo not shown) [Example 35za]
ASSAY RESULT: 6.00
//
COMPOUND: Cn1c(=O)n(CC2COCCN2CC(F)(F)F)c2cc(Nc3ccnc(Cl)c3C#N)ccc21 (stereo not shown) [Example 25a]
ASSAY RESULT: 5.58
//
COMPOUND: CC(C)C(C)(O)CCn1c(=O)n(C)c2ccc(Nc3ccnc(Cl)c3C#N)cc21 (stereo not shown) [Example 27f]
ASSAY RESULT: 5.40
//
COMPOUND: Cn1c(=O)n(CCC(C)(O)C(F)(F)F)c2cc(Nc3ccnc(Cl)c3C#N)ccc21 (stereo not shown) [Example 27d]
ASSAY RESULT: 5.70

###

SUBJECT OF TEST: Trx-6×His-BCL6 (human BCL6 BTB domain covering amino-acid sequence 5-129) (Homo sapiens (Human))
METHOD NOTES: HTRF in vitro assay (BCL6 / BCOR-AF633 peptide)
Assay type: binding
MEASUREMENT PARAMETERS: initially generated data; 10 nM Trx-6×His-BCL6, 300 nM BCOR-AF633 peptide, 1 nM anti-6×His-Terbium cryptate
Labelling: HTRF pIC50 reported below 6 becomes TRUE; at or above becomes FALSE.

COMPOUND: COC(=O)C(CCn1c(=O)n(C)c2ccc(Nc3ccnc(Cl)c3C#N)cc21)OC (centres unmarked) [Example 10b]
CLASS NAME: TRUE
--
COMPOUND: Cn1c(=O)n(CCC(C)(C)O)c2cc(Nc3ccnc(Cl)c3C#N)ccc21
CLASS NAME: TRUE
--
COMPOUND: Cc1cc(Nc2ccc3c(c2)n(CC[C@@H](C)O)c(=O)n3C)c(C#N)c(Cl)n1
CLASS NAME: TRUE
--
COMPOUND: COC(=O)C1CCCC1Cn1c(=O)n(C)c2ccc(Nc3ccnc(Cl)c3C#N)cc21 (centres unmarked)
CLASS NAME: TRUE
--
COMPOUND: Cc1cc(C)n(-c2ncc(Cl)c(Nc3ccc4c(c3)n(CCC(C)(C)O)c(=O)n4C)n2)n1 [Example 15a]
CLASS NAME: FALSE

###

In this section we review reported IC50 values for a set of compounds.
SUBJECT OF TEST: BCL6-NCOR2(SMRT) corepressor protein-protein interaction (Homo sapiens (Human), UniProt P41182)
METHOD NOTES: NanoBRET cell assay
Format: cell-based
MEASUREMENT PARAMETERS: further generated data; transfected HEK293T cells, 6 hr; read-out: NanoBRET cell pIC50 (converted)

COMPOUND: Cn1c(=O)n(CCC(C)(C)O)c2cc(Nc3nc(N4CCOC(C(F)(F)F)C4)ncc3Cl)ccc21 (stereo not shown) [Example 28b]
IC50: 2.19 µM
//
COMPOUND: Cc1nn(-c2ncc(Cl)c(Nc3ccc4c(c3)n(CCC(C)(C)O)c(=O)n4C)n2)c(C)c1Cl [Example 15n]
IC50: 1.82 µM
//
COMPOUND: CC(C)(O)CCn1c(=O)n(CCC(C)(C)O)c2cc(Nc3nc(N4CC(C)(C)OC(C)(C)C4)ncc3Cl)ccc21 [Example 35k]
IC50: 1.48 µM
//
COMPOUND: Cn1c(=O)n(CCC(C)(C)O)c2cc(Nc3nc(-n4ncc5ccccc54)ncc3Cl)ccc21 [Example 17b]
IC50: 1.91 µM

###

SUBJECT OF TEST: BCL6-NCOR2(SMRT) corepressor protein-protein interaction (Homo sapiens (Human))
METHOD NOTES: NanoBRET cell assay
Type: cell-based
MEASUREMENT PARAMETERS: initially generated data; transfected HEK293T cells, 6 hr; read-out: NanoBRET cell pIC50 (converted)
In this section we review reported IC50 values for a set of compounds.

COMPOUND: Cc1cc(Nc2ccc3c(c2)n(CCC(C)(C)O)c(=O)n3C)c(C#N)c(Cl)n1 [Example 1b]
SUBJECT OF TEST: BCL6-NCOR2(SMRT) corepressor protein-protein interaction (Homo sapiens (Human))
IC50 (µM): 5.25

COMPOUND: CNC(=O)c1cc(Nc2ccc3c(c2)n(CC[C@@H](C)O)c(=O)n3C)c(C#N)c(Cl)n1 [Example 4]
SUBJECT OF TEST: BCL6-NCOR2(SMRT) corepressor protein-protein interaction (Homo sapiens (Human))
IC50 (µM): 6.31

COMPOUND: CNC(=O)c1cc(Nc2ccc3c(c2)n(CCC(C)(C)O)c(=O)n3C)c(C#N)c(Cl)n1 [Example 1a]
SUBJECT OF TEST: BCL6-NCOR2(SMRT) corepressor protein-protein interaction (Homo sapiens (Human))
IC50 (µM): 3.55

COMPOUND: Cc1cc(C)n(-c2ncc(Cl)c(Nc3ccc4c(c3)n(CCC(C)(C)O)c(=O)n4C)n2)n1 [Example 15a]
SUBJECT OF TEST: BCL6-NCOR2(SMRT) corepressor protein-protein interaction (Homo sapiens (Human))
IC50 (µM): 2.04
